- experimental_protocol: melting temperature; fluorescence melt of hairpins on a sequencing array, two-state fit, raised by 9.35 °C to match UV melts
- condition_description: sodium 0.088 M
Reported Tm values are given for each entry in this list.

# sequence_chain, unit_info, Tm
measured = [
    ("GATCTTGCCCAAGATC ((((((....))))))", "°C", 48.9),
    ("GCGCACGAAAGTGAACGC ((((((....)))..)))", "°C", 54.5),
    ("GGTGGTGGAAACGCTACC (((.(.(....).).)))", "°C", 40.4),
    ("GATCAGGACCTGATC ((((((...))))))", "°C", 49.6),
    ("GGCCTTGGAAACGAGGTC (.(((.(....).))).)", "°C", 43.2),
]

----------
- experimental_protocol: folding enthalpy; higher = less favourable; fluorescence melt of hairpins on a sequencing array, two-state fit
- condition_description: sodium 0.088 M
endpoint_name: folding enthalpy (kcal/mol)

# sequence_chain, assay_result
measured = [
    ("GTCGTAGGAAACTATGGC (.(.(((....))).).)", -17.8),
    ("GCACTCCCGAAAGGGTGC (((..(((....))))))", -24.2),
    ("GATTCAGGAAACTGAACC (.(((((....))))).)", -17.4),
    ("GATCACGGAGGTGATC ((((((....))))))", -37.9),
    ("GCCTCGCGAAAGCCAAGC ((.(.((....)).).))", -6.14),
    ("GGAACCGGAAACGGTTTC (.(((((....))))).)", -21.3),
    ("GCTCTCGAAAGAGGAGC ((((((....))).)))", -29.2),
    ("GCGTGGCCACGC ((((....))))", -43.9),
    ("GCTCGAGAAATCGAGC ((((((....))))))", -37.4),
    ("GAGGTGCGAAAGCATCTC (((.(((....))).)))", -34),
    ("AATGGGAAACCATT (((((....)))))", -14.1),
    ("GTTCGGCGAAAGCCTAAC (((.(((....))).)))", -19.2),
    ("GGTCGCGAAAGCGTCACC ((((((....)))..)))", -13.3),
    ("GGTAGGGAAACCTACC ((((((....))))))", -38.5),
]

----------
- experimental_protocol: melting temperature; fluorescence melt of hairpins on a sequencing array, two-state fit, raised by 9.35 °C to match UV melts
- condition_description: sodium 0.088 M

# sequence_chain, unit_info, Tm
data = [
    ("GCTGTCGAAAGACCAAGC ((((((....)))..)))", "°C", 38.9),
    ("CGGCAACGGAAACGTCCG (((..(((....))))))", "°C", 39.2),
    ("GGGATCGGAAACGGTTCC ((.(.((....)).).))", "°C", 40.9),
]

----------
Catalogue of Tm readings, one per entry.
- experimental_protocol: melting temperature; fluorescence melt of hairpins on a sequencing array, two-state fit, raised by 9.35 °C to match UV melts
- condition_description: sodium 0.088 M

# sequence_chain, unit_info, Tm
rows = [
    ("GGGCGATCGAAAGATCCC (((..(((....))))))", "°C", 48.6),
    ("GACCTGCGAAAGCAGTC (((.(((....))))))", "°C", 48.5),
    ("GTGCGCCGAAAGGCCCAC (((.(((....))).)))", "°C", 48.5),
    ("GATCCTTAGCAGGATC ((((((....))))))", "°C", 48.8),
    ("GTGGTGGGAAACCATCAC (((.(((....))).)))", "°C", 51.2),
    ("GGTCTTGGAAACAGGACC ((((.((....)).))))", "°C", 49.2),
    ("GTGAGTGCGAAAGCACAC (((..(((....))))))", "°C", 48.6),
    ("GCGAACGAAAGTTCACGC ((((((....)))..)))", "°C", 48.9),
]

Hey, just so you know, these numbers are from the array DNA melting data of Ke et al. (doi:10.1101/2024.01.08.574731).
